# 3' UTR reporter interaction score listing for each entry below
# Tested on: ZEB2
# experimental.protocol: 3' UTR reporter interaction score (median-centred robust z-score of log2 firefly/Renilla activity); higher = less repression of the 3' UTR reporter
# applied.conditions: HEK293T; 48 h

{"columns": ["polymer.sequence", "3' UTR reporter interaction score"],
 "data": [
  ["UUCCCUUUGUCAUCCUAUGCCU", 0.832],
  ["AGCUACAUUGUCUGCUGGGUUUC", -0.124],
  ["AAUCCUUUGUCCCUGGGUGAGA", 0.439],
  ["AUGUAUAAAUGUAUACACAC", -1.04],
  ["UGUAGUGUUUCCUACUUUAUGGA", -2.54],
  ["AAUCCUUGGAACCUAGGUGUGAGU", -0.171],
  ["CAAAAACCACAGUUUCUUUUGC", -0.847],
  ["GUCCGCUCGGCGGUGGCCCA", 0.167],
  ["AGGCGGGGCGCCGCGGGACCGC", 0.258],
  ["UAAGGUGCAUCUAGUGCAGUUA", -0.449],
  ["CUGGACUUGGAGUCAGAAGGCC", 1.96],
  ["AUUCCUAGAAAUUGUUCAUA", -0.418],
  ["CUUGGUUCAGGGAGGGUCCCCA", 1.64],
  ["AAAGUGCUGUUCGUGCAGGUAG", -0.0741],
  ["UUAUCAGAAUCUCCAGGGGUAC", 0.799]
]}

Value source: the supplement of paper PMC5844555
